# key: entry, value: LD50 at 240 h
Assay: Acute toxicity test (LD50)
Conditions: mouse, in vivo; intravenous via tail vein, male ICR mice, 10 days' observation

* COc1cccn2c(C=C(C#N)C(=O)O)c(OC(C)C)nc12 | ~350 mg/kg

Kindly note the recorded LD50 at 240 h for CC(C)Oc1nc2c(OC(C)C)cccn2c1C=C(C#N)C(=O)O , which is ~220 mg/kg

Sure, the documented LD50 at 240 h for Cc1cccn2c(C=C(C#N)C(=O)O)c(OC(C)C)nc12 is ~150 mg/kg
